All values here come from the supplement of paper PMC10899765.

System: MCF10A
Experiment: 5+ nucleoli phenotype percent effect (relative to siNT 0% and siKIF11 100%); higher = more cells with five or more nucleoli
Details: 20 nM; 72 h
quantity measured: 5+ nucleoli phenotype percent effect (%)
Reply numerically in %, unit not repeated.

Here is how some sequences turned out for 5+ nucleoli phenotype percent effect.
[[record]]
sequence_data = "GAAAAUGAUGAGUAGUGACUGAUG [hsa-miR-3662]"
quantity_measured = "5+ nucleoli phenotype percent effect"
u = "%"
reported = 57.8

[[record]]
sequence_data = "CUCCUGAGCCAUUCUGAGCCUC [hsa-miR-1200]"
quantity_measured = "5+ nucleoli phenotype percent effect"
u = "%"
reported = -30.8


Task: Which 5+ nucleoli phenotype percent effect is reported for this sequence? AAAAGCUGGGUUGAGAGGGU [hsa-miR-320c]
Output: -0.437

Task: What do you get for UUCUCCAAAAGGGAGCACUUUC [hsa-miR-519e-5p] ?
Output: 4.42

Task: // repeat for GCUGGUCUGCGUGGUGCUCGG [hsa-miR-3663-5p] and report
Output: 52.4

Task: Here is the next sequence: ACCCAGGUUCCCUCUGGCCGCA [hsa-miR-4726-3p]
Output: -34.6

Task: Same question, GGGAGAAGGGUCGGGGC [hsa-miR-4516] this time
Output: 31.9

Task: What would you report for ACUCUAGCUGCCAAAGGCGCU [hsa-miR-1251] ?
Output: 11.2

Task: Continue with GAAUCGGAAAGGAGGCGCCG [hsa-miR-3610]
Output: 19.9

Task: Another: UAUUGCACAUUACUAAGUUGCA [hsa-miR-32-5p]
Output: 9.82

Task: What about this sequence? CAGGAUGUGGUCAAGUGUUGUU [hsa-miR-1265]
Output: 67.6

Task: Now this one: UAGCAGCACAUCAUGGUUUACA [hsa-miR-15b-5p]
Output: -4.86
